Give measured pKd for each item. Keep answers brief.
Molecular target: T1, human Trophoblast cell surface antigen 2 (TROP2) (human, UniProt P09758 27-274, limits assumed)
T1 construct: Analyte in the SPR experiments and immunogen; also called human TROP2
T1 sequence: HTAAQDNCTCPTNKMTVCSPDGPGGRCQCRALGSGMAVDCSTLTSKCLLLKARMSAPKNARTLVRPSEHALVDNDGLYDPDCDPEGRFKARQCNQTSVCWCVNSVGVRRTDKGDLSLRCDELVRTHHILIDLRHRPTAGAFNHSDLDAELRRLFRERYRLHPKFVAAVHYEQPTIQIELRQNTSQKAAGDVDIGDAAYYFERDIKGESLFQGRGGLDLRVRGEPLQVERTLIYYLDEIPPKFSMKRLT
Assay: SPR affinity ranking, human TROP2
Just the number, please; pKd means minus log10 of the concentration in mol/L.

**Q:** Input HC1/LC4 (antibody, human IgG1, kappa, V domains shown, Humanized anti-TROP2 antibody) VH: QVQLVQSGAEVKKPGASVKVSCKASGYTFTDYSINWVRQAPGQGLEWMGVISTYYGDASYNQKFKGRVTMTTDTSTSTAYMELRSLRSDDTAVYYCARYGDGYNQFDYWGQGTMVTVSS VL: EIVLTQSPATLSLSPGERATLSCRVSESVDSYGNNFMHWYQQKPGQAPRLLIYRASNLESGIPARFSGSGSGTDFTLTISSLEPEDFAVYYCQQSYEDPYTFGGGTKVEIKR , output reported pKd.
**A:** 10.04

**Q:** Give the value of pKd reported for the following: HC2/LC1 (antibody, human IgG1, kappa, V domains shown, Humanized anti-TROP2 antibody) VH: QVQLVQSGAEVKKPGASVKVSCKASGYTFTDYSINWVRQAPGQGLEWMGVISTYYGDASYNQKFKGRVTMTRDTSTSTVYMELSSLRSEDTAVYYCARYGDGYNQFDYWGQGTLVTVSS VL: DIVMTQSPDSLAVSLGERATINCRVSESVDSYGNNFMHWYQQKPGQPPKLLIYRASNLESGVPDRFSGSGSGTDFTLTISSLQAEDVAVYYCQQSYEDPYTFGQGTKLEIKR
**A:** 10.43

**Q:** Input HC3/LC3 (antibody, human IgG1, kappa, V domains shown, Humanized anti-TROP2 antibody) VH: QVQLVQSGAEVKKPGASVKVSCKASGYTFTDYSINWVRQAPGQRLEWMGVISTYYGDASYNQKFKGRVTITRDTSASTAYMELSSLRSEDTAVYYCARYGDGYNQFDYWGQGTLVTVSS VL: DIVMTQSPLSLPVTPGEPASISCRVSESVDSYGNNFMHWYLQKPGQSPQLLIYRASNLESGVPDRFSGSGSGTDFTLKISRVEAEDVGVYYCQQSYEDPYTFGGGTKVEIKR , output reported pKd.
**A:** 9.97

**Q:** Identify measured pKd associated with HC2/LC4 (antibody, human IgG1, kappa, V domains shown, Humanized anti-TROP2 antibody) VH: QVQLVQSGAEVKKPGASVKVSCKASGYTFTDYSINWVRQAPGQGLEWMGVISTYYGDASYNQKFKGRVTMTRDTSTSTVYMELSSLRSEDTAVYYCARYGDGYNQFDYWGQGTLVTVSS VL: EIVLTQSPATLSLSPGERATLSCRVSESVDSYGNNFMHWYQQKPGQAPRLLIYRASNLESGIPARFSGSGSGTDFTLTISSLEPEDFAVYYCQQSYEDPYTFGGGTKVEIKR
**A:** 10.02

**Q:** Give the value of pKd reported for the following: HC3/LC1 (antibody, human IgG1, kappa, V domains shown, Humanized anti-TROP2 antibody) VH: QVQLVQSGAEVKKPGASVKVSCKASGYTFTDYSINWVRQAPGQRLEWMGVISTYYGDASYNQKFKGRVTITRDTSASTAYMELSSLRSEDTAVYYCARYGDGYNQFDYWGQGTLVTVSS VL: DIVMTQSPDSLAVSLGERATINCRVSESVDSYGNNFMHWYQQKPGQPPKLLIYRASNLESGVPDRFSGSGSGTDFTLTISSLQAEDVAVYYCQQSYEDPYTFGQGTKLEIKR
**A:** 10.17

**Q:** Hello, please tell me recorded pKd for this one: HC5/LC1 (antibody, human IgG1, kappa, V domains shown, Humanized anti-TROP2 antibody) VH: EVQLVQSGAEVKKPGESLKISCKGSGYTFTDYSINWVRQMPGKGLEWMGVISTYYGDASYNQKFKGQVTISADKSISTAYLQWSSLKASDTAMYYCARYGDGYNQFDYWGQGTLVTVSS VL: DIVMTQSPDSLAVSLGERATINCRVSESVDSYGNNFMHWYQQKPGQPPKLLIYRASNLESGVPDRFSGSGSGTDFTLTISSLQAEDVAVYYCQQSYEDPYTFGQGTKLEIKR
**A:** 9.83

**Q:** Please list pKd recorded for the binder HC3/LC4 (antibody, human IgG1, kappa, V domains shown, Humanized anti-TROP2 antibody) VH: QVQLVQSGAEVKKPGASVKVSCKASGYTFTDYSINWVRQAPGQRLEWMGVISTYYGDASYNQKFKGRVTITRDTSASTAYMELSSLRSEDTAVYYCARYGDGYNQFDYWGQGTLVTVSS VL: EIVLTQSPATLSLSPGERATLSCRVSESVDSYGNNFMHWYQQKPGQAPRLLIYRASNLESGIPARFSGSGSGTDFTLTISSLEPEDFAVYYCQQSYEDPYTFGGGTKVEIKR
**A:** 9.85

**Q:** Assign pKd to the following record: HC2/LC3 (antibody, human IgG1, kappa, V domains shown, Humanized anti-TROP2 antibody) VH: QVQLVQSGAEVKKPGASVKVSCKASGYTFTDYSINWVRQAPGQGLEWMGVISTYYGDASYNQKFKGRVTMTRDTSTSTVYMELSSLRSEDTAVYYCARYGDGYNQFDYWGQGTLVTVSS VL: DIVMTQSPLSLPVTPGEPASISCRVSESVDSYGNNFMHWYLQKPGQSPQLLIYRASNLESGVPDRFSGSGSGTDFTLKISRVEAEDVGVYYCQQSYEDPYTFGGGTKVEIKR
**A:** 9.98

**Q:** Specify pKd for HC4/LC5 (antibody, human IgG1, kappa, V domains shown, Humanized anti-TROP2 antibody; also called DP002-HC4LC5; DP002HC4LC5) VH: QVQLVQSGAEVKKPGSSVKVSCKASGYTFTDYSINWVRQAPGQGLEWMGVISTYYGDASYNQKFKGRVTITADESTSTAYMELSSLRSEDTAVYYCARYGDGYNQFDYWGQGTLVTVSS VL: DIQMTQSPSSLSASVGDRVTITCRVSESVDSYGNNFMHWYQQKPGKAPKLLIYRASNLESGVPSRFSGSGSGTDFTFTISSLQPEDIATYYCQQSYEDPYTFGGGTKLEIKR and stop.
**A:** 10.10
